- system: SARS-CoV-2 spike (S) protein on authentic SARS-CoV-2 virus (strain WA1/2020) (SARS-CoV-2, UniProt P0DTC2 14-1273)
- test.description: cell-based or functional assay
attribute.measured: Nano-luciferase virus reduction test, SARS-CoV-2, IC50

Consider the worked cases shown below.
COV2-2046 (antibody, V domains shown) VH: EVQLVESGGGLVQPGRSLRLSCAASGFTFDDYAMHWVRQAPGKGLEWVSGISWNSGSIAYTDSVKGRFTISRDNAKNSLYLQMNSLRAEDTALYYCAKAHSTGHQYYYGMDVWGQGTTVTVSS VL: DIQMTQSPSSLSASVGDRVTITCRASQSISSFLNWYQQKPGKAPKLLIYAAFNLQSGVPSRFSGSGSGTDFTLTISSLQSEDFATYYCQQSYNTPYTFGQGTKLEIK | < 0.1 µg/mL
COV2-2132 (antibody, V domains shown) VH: EVQLVESGGGLIQPGGSLRLSCAASEVTVSSNYMSWVRQAPGKGLEWVSLIYSGGTTYYADSVKGRFTISRDNSKNTLYLQMNSLRAEDTAVYYCARDFLRWHDLWGQGTLVTVSS VL: DIQMTQSPSSLSASVGDRVTITCQASQDINNYLNWYQQKPGKAPKLLIYDASNLETGVPLRFSGSGSGTDFTFTISSLQPEDIATYYCQQYDNLPPVFGGGTKVEIK | < 0.3 µg/mL

## Task Reported Nano-luciferase virus reduction test, SARS-CoV-2, IC50, binder COV2-2098 (antibody, V domains shown) VH: EVQLLESGGGLIQPGGSLRLSCAASGFTFSNYAMSWVRQAPGKGLEWVSGIISTSGGATYNADSVRGRFTTSRDNSKNILYLQMNSLRGEDTAVYYCVKGLFDWFPLWGQGTMVTVSS VL: DIVMTQSPATLSVSPGERAILSCRASQSVRSNLAWYQQKPGQAPRLLISGASTRATAIPARFSGSGSGTEFTLTITSLQSEDCAVYYCHQYNNWPQTFGQGTKVEIK : ____
## Result < 0.1 µg/mL
